# Tested on: rodent lifetime carcinogenesis bioassay, tumor incidence TD50
# TEST: carcinogenic potency in animals, long-term in vivo studies, CPDB compilation (AID 1745844)
# MEASUREMENT_PARAMETERS: mouse; strain Charles River CD1; females; in feed; site: liver; lesion: several types; types named in the paper; dosed 92 weeks; study length 92 weeks
OUTCOME_MEASURE: TD50 (mg/kg/day)
Report as a plain number; the unit mg/kg/day is understood.

IN: Data request, read-out TD50, for NC(=O)OCC(COC(N)=O)c1ccccc1
OUT: 10200

###

# Test system: rodent lifetime carcinogenesis bioassay, tumor incidence TD50
# TEST: carcinogenic potency in animals, long-term in vivo studies, CPDB compilation (AID 1745844)
# MEASUREMENT_PARAMETERS: mouse; strain B6C3F1; males; inhaled; site: lung; lesion: alveolar/bronchiolar adenoma + alveolar/bronchiolar carcinoma; dosed 13 weeks; study length 104 weeks
OUTCOME_MEASURE: TD50 (mg/kg/day)
Give your result in mg/kg/day as a bare value.

IN: Kindly state the measured TD50 obtained for C=CC=C with rodent lifetime carcinogenesis bioassay, tumor incidence TD50.
OUT: 8.59
